Test system: MS2 coat protein
Experiment: apparent KD of MS2 coat protein; higher = weaker reporter binding
Conditions: Eterna round: R107; input ligand: arginine 13.2 mM
Parameter apparent KD of MS2 coat protein: see the listing below.
Number in nM, nothing else.

Recorded apparent KD of MS2 coat protein, per entry:
GGCACAUAGUCGGCCGCCACUAGAAUAAGAAGGGAAAACAUGAGGAUCACCCAUGUAAAAGGGACUAGGACCGGGACUAUGUGCC [Shrew]; 14.5
CAUGGCUGUGCGGCCGCCACUGGCUCAUCCUGCAUUACAUGAGGAUCACCCAUGUUGCGGCCUCCCAGGACCGGGCAUAGCCUGA [Abediat]; 39.5
ACCGAGGCAAUGGAUACCAGUGCGCCACAAUCGUGCUUCAACAUGAGGAUCACCCAUGUGCACCCUUGGCAGCCAACGGGCUCAU [theeternabot_exclusion_MS2_Theo_B_19]; 15
UUGUUGUUUGGAAGGAGCGUGUAAGAUUAAGAACAUGAGGAUCACCCAUGUUGUAAGGUAGCACAGGUAGGUCGCCGGGUGGUGG [11.T]; 19.3
UUAUUUAUAAUGGAUACCAGUGCUGUGGCCCGGCAUCCUGACAUGAGGAUCACCCAUGUGUACCCUUGGCAGCUGUUAUGGGUUU [XTheo B #20]; 20.7
CGUAUUACGAAAGUAGUACGUAGUGUUCGACGAGGACCGGUACGGCCGCCACUCGGACAUGAGGAUCACCCAUGUAGCGAAAGCU [Tryptophan A 24]; 46.1
UCGGGCAUGGCGGCCGCCACUGGUUGGCGUGCGGAUGAGGGAACAUGAGGAUCACCCAUGUUGGUUAGGACCGGGCUUGCGUCGU [knkmullin]; 11.8
AGAACCCAAGAGGAUACCAGAACGACAAUCAAAUCUUUUUACAUGAGGAUCACCCAUGUUUUCCCUUGGCAGCCUCAUGCACGAC [theeternabot_exclusion_MS2_Theo_B_43]; 47.1

# input sequence: CAGCCUGAUUGGUAAAUCCCUCAUCGUGAUACCAGUCGAGUGAUCGACCCUUGGCAGCACAUGAGGAUCACCCAUGUGCGCGUAA [Raisener] ; wanted: its apparent KD of MS2 coat protein
22
